molecular target: Broad substrate specificity ATP-binding cassette transporter ABCG2 (Homo sapiens, UniProt Q9UNQ0); experiment: Inhibition of ABCG2 in human mitoxantrone-resistant MCF7 cells by Hoechst 33342 assay; assay type: cell-based
Sequence (Q9UNQ0 whole entry): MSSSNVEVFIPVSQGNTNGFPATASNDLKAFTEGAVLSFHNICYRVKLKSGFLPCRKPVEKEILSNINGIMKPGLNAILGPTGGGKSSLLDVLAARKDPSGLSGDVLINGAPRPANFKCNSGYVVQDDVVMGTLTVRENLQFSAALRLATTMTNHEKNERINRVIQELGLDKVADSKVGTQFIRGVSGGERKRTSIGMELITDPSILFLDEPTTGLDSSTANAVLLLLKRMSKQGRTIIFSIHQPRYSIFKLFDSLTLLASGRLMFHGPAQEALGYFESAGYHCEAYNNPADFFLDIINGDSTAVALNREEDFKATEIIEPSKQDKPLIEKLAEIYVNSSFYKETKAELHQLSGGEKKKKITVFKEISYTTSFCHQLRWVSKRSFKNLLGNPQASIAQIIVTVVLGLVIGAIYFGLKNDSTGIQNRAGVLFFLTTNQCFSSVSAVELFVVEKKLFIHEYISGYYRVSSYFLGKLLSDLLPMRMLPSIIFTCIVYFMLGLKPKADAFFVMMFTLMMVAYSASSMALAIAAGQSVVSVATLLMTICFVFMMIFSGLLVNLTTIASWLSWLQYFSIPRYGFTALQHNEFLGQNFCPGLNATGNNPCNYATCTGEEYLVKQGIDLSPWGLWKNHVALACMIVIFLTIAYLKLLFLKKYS
property.label: pIC50
Reminder that pIC50 is minus the log10 of a molar concentration.

Record excerpt, results attached:
{"compound": "COc1cc2c(cc1OC)CN(CCc1ccc(NC(=O)c3cnc4ccccc4c3)cc1)CC2", "property.label": "pIC50", "result": 4.62}
{"compound": "COc1cc2c(cc1OC)CN(CCc1ccc(NC(=O)c3cccc4ccccc34)cc1)CC2", "property.label": "pIC50", "result": 4.89}
{"compound": "COc1ccc([C@@H]2Sc3ccccc3N(CCN(C)C)C(=O)[C@@H]2OC(C)=O)cc1 [DILTIAZEM]", "property.label": "pIC50", "result": 3.07}
{"compound": "COc1cc2c(cc1OC)CN(CCc1ccc(NC(=O)c3ccc(N)cc3)cc1)CC2", "property.label": "pIC50", "result": 3.58}
{"compound": "COc1cc2c(cc1OC)CN(CCc1ccc(NC(=O)c3ccccc3NC(=O)c3ccc(C)cc3)cc1)CC2", "property.label": "pIC50", "result": 5.41}
{"compound": "COc1ccc(C(=O)Nc2ccccc2C(=O)Nc2ccc(CCN3CCc4cc(OC)c(OC)cc4C3)cc2)cc1OC", "property.label": "pIC50", "result": 5.68}

# get_value(readout='pIC50', item= `COc1cc2c(cc1OC)CN(CCc1ccc(NC(=O)c3cc(OC)c(OC)cc3NC(=O)c3cnc4ccccc4c3)cc1)CC2` ) 5.84

# get_value(readout='pIC50', item= `COc1cc2c(cc1OC)CN(CCc1ccc(NC(=O)c3ccccc3[N+](=O)[O-])cc1)CC2` ) 3.96

# get_value(readout='pIC50', item= `COc1cc2c(cc1OC)CN(CCc1ccc(NC(=O)c3cc4ccccc4cn3)cc1)CC2` ) 5.22

---

biological target: Broad substrate specificity ATP-binding cassette transporter ABCG2 (Homo sapiens); assay: Inhibition of ABCG2 in human mitoxantrone-resistant MCF7 cells by Hoechst 33342 assay; assay type: cell-based
We label by threshold. Values of IC50 strictly beneath 20 µM are Condition met. Values of 20 µM and up are Condition not met.

The following molecules have reported results that may help.
{"molecule": "COC(=O)C1=C(C)NC(C)=C(C(=O)OCCN(C)Cc2ccccc2)C1c1cccc([N+](=O)[O-])c1 (configuration not stated)", "target.or.system": "Broad substrate specificity ATP-binding cassette transporter ABCG2 (Homo sapiens)", "cat": "Condition met"}
{"molecule": "Nc1ccccc1C(=O)Nc1ccc(CCN2CCc3ccccc3C2)cc1", "target.or.system": "Broad substrate specificity ATP-binding cassette transporter ABCG2 (Homo sapiens)", "cat": "Condition not met"}
{"molecule": "COc1cc2c(cc1OC)CN(CCc1ccc(NC(=O)c3ccc4ncccc4c3)cc1)CC2", "target.or.system": "Broad substrate specificity ATP-binding cassette transporter ABCG2 (Homo sapiens)", "cat": "Condition met"}
{"molecule": "COc1cc2c(cc1OC)CN(CCc1ccc(NC(=O)c3ccccc3NC(=O)c3ccccc3)cc1)CC2", "target.or.system": "Broad substrate specificity ATP-binding cassette transporter ABCG2 (Homo sapiens)", "cat": "Condition met"}

Does the reported IC50 of `COc1cc2c(cc1OC)CN(CCc1ccc(NC(=O)c3ccc4ccccc4c3)cc1)CC2` stay below 20 µM? Condition met

Does the reported IC50 of `COc1cc2c(cc1OC)CN(CCc1ccc(NC(=O)c3ccc([N+](=O)[O-])cc3)cc1)CC2` stay below 20 µM? Condition met

Does the reported IC50 of `COc1cc2c(cc1OC)CN(CCc1ccc(NC(=O)c3cccnc3)cc1)CC2` stay below 20 µM? Condition not met

---

target: Broad substrate specificity ATP-binding cassette transporter ABCG2 (Homo sapiens, UniProt Q9UNQ0); assay: Inhibition of ABCG2 in human mitoxantrone-resistant MCF7 cells by Hoechst 33342 assay; assay type: cell-based
property.label: IC50 (µM)
Write down the numeric answer in µM and omit the unit.

{"molecule": "COc1cc2c(cc1OC)CN(CCc1ccc(NC(=O)c3ccccc3NC(=O)c3cnc4ccccc4c3)cc1)CC2", "result": 5.01}
{"molecule": "O=C(Nc1ccc(CCN2CCc3ccccc3C2)cc1)c1ccc([N+](=O)[O-])cc1", "result": 6.61}
{"molecule": "COc1cc2c(cc1OC)CN(CCc1ccc(NC(=O)c3ccccc3Br)cc1)CC2", "result": 21.9}
{"molecule": "COc1cc2c(cc1OC)CN(CCc1ccc(NC(=O)c3cccc(Br)c3)cc1)CC2", "result": 22.9}
{"molecule": "COc1cc2c(cc1OC)CN(CCc1ccc(NC(=O)c3cc(OC)c(OC)cc3[N+](=O)[O-])cc1)CC2", "result": 64.6}
{"molecule": "O=C(Nc1ccc(CCN2CCc3ccccc3C2)cc1)c1ccccc1[N+](=O)[O-]", "result": 79.4}
{"molecule": "COc1cc2c(cc1OC)CN(CCc1ccc(NC(=O)c3ccc(Br)cc3)cc1)CC2", "result": 11.5}
{"molecule": "COc1cc2c(cc1OC)CN(CCc1ccc(NC(=O)c3ccccc3)cc1)CC2", "result": 24.5}

# get_value(readout='IC50', item= `Nc1ccc(C(=O)Nc2ccc(CCN3CCc4ccccc4C3)cc2)cc1` ) 77.6

# get_value(readout='IC50', item= `COC(=O)[C@H]1[C@H]2C[C@@H]3c4[nH]c5cc(OC)ccc5c4CCN3C[C@H]2C[C@@H](OC(=O)c2cc(OC)c(OC)c(OC)c2)[C@@H]1OC` ) 26.3

# get_value(readout='IC50', item= `O=C(Nc1ccccc1C(=O)Nc1ccc(CCN2CCc3ccccc3C2)cc1)c1cnc2ccccc2c1` ) 1

# get_value(readout='IC50', item= `O=C(Nc1ccc(CCN2CCc3ccccc3C2)cc1)c1cnc2ccccc2c1` ) 5.01

# get_value(readout='IC50', item= `COc1cc2c(cc1OC)CN(CCc1ccc(NC(=O)c3ccccc3N)cc1)CC2` ) 85.1

# get_value(readout='IC50', item= `COc1cc2c(cc1OC)CN(CCc1ccc(NC(=O)c3ccnc4ccccc34)cc1)CC2` ) 36.3

# get_value(readout='IC50', item= `COc1cc2c(cc1OC)CN(CCc1ccc(NC(=O)C3Oc4ccccc4O3)cc1)CC2` ) 15.1

---

target: Broad substrate specificity ATP-binding cassette transporter ABCG2 (Homo sapiens); experiment: Inhibition of ABCG2 in human mitoxantrone-resistant MCF7 cells by Hoechst 33342 assay using one phase exponential association analysis; type: cell-based
property.label: IC50
Please answer using the number first and the unit second.

# get_value(readout='IC50', item= `O=C(Nc1ccccc1C(=O)Nc1ccc(CCN2CCc3ccccc3C2)cc1)c1cnc2ccccc2c1` ) 676 nM

---

biological target: ATP-dependent translocase ABCB1 (Homo sapiens); experiment: Inhibition of P-gp in human adriamycin-resistant A2780 cells by Hoechst 33342 assay
Sequence (P08183 whole entry): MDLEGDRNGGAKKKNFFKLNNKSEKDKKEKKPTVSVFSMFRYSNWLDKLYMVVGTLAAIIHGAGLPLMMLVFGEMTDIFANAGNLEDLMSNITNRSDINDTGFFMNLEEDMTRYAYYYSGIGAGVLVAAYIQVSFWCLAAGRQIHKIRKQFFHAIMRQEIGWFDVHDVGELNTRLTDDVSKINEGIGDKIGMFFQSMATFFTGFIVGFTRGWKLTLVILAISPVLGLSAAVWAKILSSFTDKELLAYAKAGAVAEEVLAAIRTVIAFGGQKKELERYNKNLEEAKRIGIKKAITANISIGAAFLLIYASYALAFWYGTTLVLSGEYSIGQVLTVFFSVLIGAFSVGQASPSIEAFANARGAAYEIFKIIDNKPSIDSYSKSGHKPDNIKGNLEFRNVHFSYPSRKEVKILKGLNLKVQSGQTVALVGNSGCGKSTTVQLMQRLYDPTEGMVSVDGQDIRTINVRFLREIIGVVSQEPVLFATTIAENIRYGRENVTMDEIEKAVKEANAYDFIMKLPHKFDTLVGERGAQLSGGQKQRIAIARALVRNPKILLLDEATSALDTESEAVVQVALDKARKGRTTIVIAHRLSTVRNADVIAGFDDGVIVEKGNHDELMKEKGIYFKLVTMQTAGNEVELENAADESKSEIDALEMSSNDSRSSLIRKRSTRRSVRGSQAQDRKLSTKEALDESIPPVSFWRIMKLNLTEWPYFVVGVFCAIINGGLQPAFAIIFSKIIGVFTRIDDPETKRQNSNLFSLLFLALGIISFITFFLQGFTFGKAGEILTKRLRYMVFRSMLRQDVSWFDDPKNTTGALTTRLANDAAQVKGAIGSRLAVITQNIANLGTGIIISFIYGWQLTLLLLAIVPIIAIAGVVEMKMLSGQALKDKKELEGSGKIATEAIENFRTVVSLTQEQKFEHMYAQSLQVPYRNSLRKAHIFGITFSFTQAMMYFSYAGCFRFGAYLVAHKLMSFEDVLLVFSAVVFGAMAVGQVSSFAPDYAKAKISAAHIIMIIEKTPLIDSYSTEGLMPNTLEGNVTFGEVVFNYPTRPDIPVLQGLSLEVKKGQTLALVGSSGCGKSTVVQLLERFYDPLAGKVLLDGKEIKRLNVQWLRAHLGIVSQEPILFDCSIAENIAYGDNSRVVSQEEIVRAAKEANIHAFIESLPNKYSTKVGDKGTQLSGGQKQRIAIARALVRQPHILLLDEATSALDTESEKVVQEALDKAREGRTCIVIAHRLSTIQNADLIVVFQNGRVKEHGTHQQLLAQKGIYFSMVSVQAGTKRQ
Readings of IC50 for the listed molecules
Write down the numeric answer in µM and omit the unit.

Record excerpt, results attached:
{"chemical.smiles": "COc1cc2c(cc1OC)CN(CCc1ccc(NC(=O)C3Oc4ccccc4O3)cc1)CC2", "IC50 / µM": 1.41}
{"chemical.smiles": "COc1cc2c(cc1OC)CN(CCc1ccc(NC(=O)c3ccccc3)cc1)CC2", "IC50 / µM": 4.79}

Moving on to the next molecule.
# get_value(readout='IC50', item= `COc1cc2c(cc1OC)CN(CCc1ccc(NC(=O)c3cc(OC)c(OC)cc3NC(=O)c3cnc4ccccc4c3)cc1)CC2` ) 0.0724

---

Readings of IC50 for the listed compounds
biological target: UniProt:Q9UNQ0; assay: Inhibition of ABCG2 in human mitoxantrone-resistant MCF7 cells by Hoechst 33342 assay; assay type: cell-based
Write down the numeric answer in µM and omit the unit.

{"compound": "COc1ccc(CCN(C)CCCC(C#N)(c2ccc(OC)c(OC)c2)C(C)C)cc1OC (centres undefined)", "result": 525}
{"compound": "COc1cc2c(cc1OC)CN(CCc1ccc(NC(=O)c3cnc4ccccc4n3)cc1)CC2", "result": 6.03}
{"compound": "COc1ccc(C(=O)Nc2ccc(CCN3CCc4cc(OC)c(OC)cc4C3)cc2)cc1OC", "result": 47.9}

# get_value(readout='IC50', item= CC(=O)[C@H]1CC[C@H]2[C@@H]3CCC4=CC(=O)CC[C@]4(C)[C@H]3CC[C@]12C [PROGESTERONE] ) 126
